Cited source: patent US11076595B2

- System: Echinochloa crus-galli
- EXPERIMENT_SUMMARY: Test Example 1: herbicidal effect test by soil treatment in paddy field
- Format: in vivo
- PROTOCOL_CONDITIONS: 120 g/10a, paddy soil treatment just after sowing, 14 days after treatment
MEASUREMENT_TYPE: weed suppression rate, Echinochloa crus-galli (%)

- COMPOUND: "CC(C)N(C(=O)n1ncn(S(=O)(=O)C2CCCCC2)c1=O)c1ccc(F)c(F)c1F [Compound 1-309]"
  ASSAY_VALUE: 100
- COMPOUND: "Cc1cc(N(C(=O)n2ncn(S(=O)(=O)C(C)C)c2=O)C(C)C)no1 [Compound 1-99]"
  ASSAY_VALUE: 60
- COMPOUND: "CC(C)N(C(=O)n1ncn(S(=O)(=O)C2CCCC2)c1=O)c1ccc(F)cc1F [Compound 1-284]"
  ASSAY_VALUE: 100
- COMPOUND: "CC(C)N(C(=O)n1ncn(S(=O)(=O)C2CCCCC2)c1=O)c1ccc(C(F)(F)F)cc1F [Compound 1-323]"
  ASSAY_VALUE: 100
- COMPOUND: "Cc1ccc(N(C(=O)n2ncn(S(=O)(=O)C3CC3)c2=O)C(C)C)c(F)c1 [Compound 1-221]"
  ASSAY_VALUE: 90
- COMPOUND: "CC(C)N(C(=O)n1ncn(S(=O)(=O)C(C)C)c1=O)c1ccccc1F [Compound 1-55]"
  ASSAY_VALUE: 90
- COMPOUND: "CC(C)N(C(=O)n1ncn(S(=O)(=O)C2CCCCC2)c1=O)c1c(F)cccc1F [Compound 1-308]"
  ASSAY_VALUE: 100
- COMPOUND: "CC(C)N(C(=O)n1ncn(S(=O)(=O)N(C)C)c1=O)c1ccc(F)nc1 [Compound 1-1129]"
  ASSAY_VALUE: 90
- COMPOUND: "Cc1ccc(S(=O)(=O)n2cnn(C(=O)N(c3ccc(Cl)nc3Cl)C(C)C)c2=O)cc1 [Compound 1-690]"
  ASSAY_VALUE: 100
- COMPOUND: "CC(C)N(C(=O)n1ncn(S(=O)(=O)C2CCCCC2)c1=O)c1ccc(F)cc1Cl [Compound 1-313]"
  ASSAY_VALUE: 90
- COMPOUND: "Cc1cc(C)c(S(=O)(=O)n2cnn(C(=O)N(c3ccc(F)c(F)c3F)C(C)C)c2=O)c(C)c1 [Compound 1-899]"
  ASSAY_VALUE: 100
- COMPOUND: "Cc1ccc(N(C(=O)n2ncn(S(=O)(=O)C3CCCCC3)c2=O)C(C)C)c(Cl)c1 [Compound 1-322]"
  ASSAY_VALUE: 90
- COMPOUND: "CC(C)N(C(=O)n1ncn(S(=O)(=O)N(C)C)c1=O)c1ccccc1F [Compound 1-1093]"
  ASSAY_VALUE: 90
- COMPOUND: "CC(C)N(C(=O)n1ncn(S(=O)(=O)C2CC2)c1=O)c1ccc(F)cc1Cl [Compound 1-214]"
  ASSAY_VALUE: 90
- COMPOUND: "CC(C)N(C(=O)n1ncn(S(=O)(=O)C2CC2)c1=O)c1ccc(F)c(F)c1F [Compound 1-203]"
  ASSAY_VALUE: 100
- COMPOUND: "CC(C)N(C(=O)n1ncn(S(=O)(=O)C2CC2)c1=O)c1cccc(F)c1F [Compound 1-198]"
  ASSAY_VALUE: 100
- COMPOUND: "CC(C)N(Cc1ccc(F)cc1F)C(=O)n1ncn(S(=O)(=O)C2CC2)c1=O [Compound 1-238]"
  ASSAY_VALUE: 90
- COMPOUND: "CC(C)N(C(=O)n1ncn(S(=O)(=O)C2CCCCC2)c1=O)c1ccccc1 [Compound 1-295]"
  ASSAY_VALUE: 90
- COMPOUND: "CC(C)N(C(=O)n1ncn(S(=O)(=O)C2CC2)c1=O)c1cccc(F)c1 [Compound 1-170]"
  ASSAY_VALUE: 90
- COMPOUND: "CC(C)CN(C)S(=O)(=O)n1cnn(C(=O)N(c2ccc(F)cc2F)C(C)C)c1=O [Compound 1-1142]"
  ASSAY_VALUE: 100
- COMPOUND: "Cc1ccc(N(C(=O)n2ncn(S(=O)(=O)C3CCCCC3)c2=O)C(C)C)c(F)c1 [Compound 1-320]"
  ASSAY_VALUE: 90
- COMPOUND: "CC(C)N(C(=O)n1ncn(S(=O)(=O)C(C)C)c1=O)c1ccc(Cl)cc1F [Compound 1-73]"
  ASSAY_VALUE: 100
- COMPOUND: "CCN(CC)S(=O)(=O)n1cnn(C(=O)N(c2ccc(F)cc2F)C(C)C)c1=O [Compound 1-1140]"
  ASSAY_VALUE: 90
- COMPOUND: "CC(C)N(C(=O)n1ncn(S(=O)(=O)C2CC2)c1=O)c1ccc(Cl)nc1Cl [Compound 1-249]"
  ASSAY_VALUE: 100
- COMPOUND: "Cc1ccc(N(C(=O)n2ncn(S(=O)(=O)N(C)C)c2=O)C(C)C)c(F)c1 [Compound 1-1117]"
  ASSAY_VALUE: 90
- COMPOUND: "Cc1ccc(N(C(=O)n2ncn(S(=O)(=O)C3CC3)c2=O)C(C)C)c(Cl)c1 [Compound 1-223]"
  ASSAY_VALUE: 100
- COMPOUND: "Cc1cc(F)ccc1N(C(=O)n1ncn(S(=O)(=O)C2CC2)c1=O)C(C)C [Compound 1-220]"
  ASSAY_VALUE: 100
- COMPOUND: "CC(C)N(C(=O)n1ncn(S(=O)(=O)C2CCCCC2)c1=O)c1ccc(C#N)cc1Cl [Compound 1-328]"
  ASSAY_VALUE: 90
- COMPOUND: "CC(C)N(C(=O)n1ncn(S(=O)(=O)C2CC2)c1=O)c1c(F)cccc1F [Compound 1-200]"
  ASSAY_VALUE: 100
- COMPOUND: "CC(C)N(C(=O)n1ncn(S(=O)(=O)C(C)C)c1=O)c1ccccc1 [Compound 1-54]"
  ASSAY_VALUE: 90
